Each entry below carries its reported Ki.
target: Suppressor of tumorigenicity 14 protein (Homo sapiens)
Quick note: give the figure in nM, leave out the unit.

Sample N=C(N)NCCC[C@H](NC(=O)[C@H](Cc1ccc(O)c(O)c1)NC(=O)C(Cc1ccc(O)cc1)NC(=O)[C@@H](N)Cc1ccc(O)cc1)C(=O)c1nc2ccccc2s1 (single isomer, unassigned) , system: Suppressor of tumorigenicity 14 protein (Homo sapiens). Its Ki is 12

====

Biological target: UniProt Q9Y5Y6
Sequence (Q9Y5Y6 whole entry): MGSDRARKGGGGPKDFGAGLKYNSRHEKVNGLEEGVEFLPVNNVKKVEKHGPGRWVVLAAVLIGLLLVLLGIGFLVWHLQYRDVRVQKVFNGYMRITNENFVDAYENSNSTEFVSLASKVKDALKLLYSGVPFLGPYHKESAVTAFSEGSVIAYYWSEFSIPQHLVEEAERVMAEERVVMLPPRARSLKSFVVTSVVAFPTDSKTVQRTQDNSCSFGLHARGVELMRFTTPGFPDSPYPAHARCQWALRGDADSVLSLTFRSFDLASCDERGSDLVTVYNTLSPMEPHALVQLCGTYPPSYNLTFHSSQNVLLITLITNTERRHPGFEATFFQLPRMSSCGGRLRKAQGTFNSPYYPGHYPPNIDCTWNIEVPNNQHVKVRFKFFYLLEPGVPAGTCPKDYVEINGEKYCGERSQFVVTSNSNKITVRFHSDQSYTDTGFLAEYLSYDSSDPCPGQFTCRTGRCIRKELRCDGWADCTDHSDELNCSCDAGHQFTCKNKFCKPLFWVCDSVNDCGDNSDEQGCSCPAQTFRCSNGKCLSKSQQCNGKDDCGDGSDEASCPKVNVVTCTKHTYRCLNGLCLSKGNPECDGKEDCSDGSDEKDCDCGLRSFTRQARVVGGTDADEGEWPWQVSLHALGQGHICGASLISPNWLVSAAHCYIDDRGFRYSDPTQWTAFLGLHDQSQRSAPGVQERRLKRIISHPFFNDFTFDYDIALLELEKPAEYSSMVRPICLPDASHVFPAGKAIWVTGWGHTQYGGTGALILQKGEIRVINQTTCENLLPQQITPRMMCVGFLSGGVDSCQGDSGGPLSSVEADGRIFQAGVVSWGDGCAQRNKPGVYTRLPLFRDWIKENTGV
Measurement Type: pKi
Please report pKi as the negative decimal logarithm of the molar concentration, giving only the number.

Would you please look over these solved cases?
{"columns": ["Molecule", "pKi"],
 "data": [
  ["N=C(N)NCCC[C@H](NC(=O)[C@H](Cc1cccs1)NC(=O)C(Cc1ccc(O)cc1)NC(=O)[C@@H](N)Cc1ccc(O)cc1)C(=O)c1nc2ccccc2s1 (single isomer, unassigned)", 7.72],
  ["CC(C)[C@H](NC(=O)[C@H](CCc1ccccc1)NC(=O)CCc1ccccc1)C(=O)N[C@@H](CCCNC(=N)N)C(=O)c1nc2ccccc2s1", 7.19],
  ["CC(C)C[C@H](NC(=O)[C@H](CCc1ccccc1)NC(=O)CCc1ccccc1)C(=O)N[C@@H](CCCNC(=N)N)C(=O)c1nc2ccccc2s1", 6.92],
  ["N=C(N)NCCC[C@H](NC(=O)[C@H](Cc1ccc(O)cc1)NC(=O)C(Cc1ccc(O)cc1)NC(=O)[C@@H](N)Cc1ccc(O)cc1)C(=O)c1nc2ccccc2s1 (single isomer, unassigned)", 8.15],
  ["C[C@@H](O)[C@H](NC(=O)[C@H](CCc1ccccc1)NC(=O)CCc1ccccc1)C(=O)N[C@@H](CCCNC(=N)N)C(=O)c1nc2ccccc2s1", 6.92]
]}

Field pKi (system: UniProt Q9Y5Y6) for entry CC(C)[C@H](NC(=O)[C@H](Cc1ccccc1)NC(=O)[C@@H](N)Cc1ccc(O)cc1)C(=O)N[C@@H](CCCNC(=N)N)C(=O)c1nc2ccccc2s1 = 7.20

For CC(C)[C@@H](NC(=O)[C@H](CCc1ccccc1)NC(=O)CCc1ccccc1)C(=O)N[C@@H](CCCNC(=N)N)C(=O)c1nc2ccccc2s1 on UniProt Q9Y5Y6, measured pKi was 6.62

The observed pKi for N=C(N)NCCC[C@H](NC(=O)[C@H](Cc1c[nH]cn1)NC(=O)C(Cc1ccc(O)cc1)NC(=O)[C@@H](N)Cc1ccc(O)cc1)C(=O)c1nc2ccccc2s1 (single isomer, unassigned) when tested with UniProt Q9Y5Y6 stands at 7.32

Entry CC(C)[C@H](NC(=O)[C@H](Cc1ccc(O)cc1)NC(=O)CC12CC3CC(CC(C3)C1)C2)C(=O)N[C@@H](CCCNC(=N)N)C(=O)c1nc2ccccc2s1 , tested on UniProt Q9Y5Y6, has a reported pKi of 7.41

Measured on UniProt Q9Y5Y6, CCC[C@H](NC(=O)[C@H](CCc1ccccc1)NC(=O)CCc1ccccc1)C(=O)N[C@@H](CCCNC(=N)N)C(=O)c1nc2ccccc2s1 has a documented pKi of 7.59

Entry CC(C)[C@H](NC(=O)[C@H](Cc1cccc(Cl)c1)NC(=O)[C@@H](N)Cc1ccc(O)cc1)C(=O)N[C@@H](CCCNC(=N)N)C(=O)c1nc2ccccc2s1 , UniProt Q9Y5Y6 data, pKi value: 7.47

# lookup: CC[C@@H](C)[C@H](NC(=O)[C@H](CCc1ccccc1)NC(=O)CCc1ccccc1)C(=O)N[C@@H](CCCNC(=N)N)C(=O)c1nc2ccccc2s1 on UniProt Q9Y5Y6, pKi = 7.29

Note to self: pKi of CC(C)[C@H](NC(=O)[C@H](Cc1ccc(OCc2ccccc2)cc1)NC(=O)CCc1ccccc1)C(=O)N[C@@H](CCCNC(=N)N)C(=O)c1nc2ccccc2s1 with UniProt Q9Y5Y6 was 7.15

====

target: UniProt Q8IU80; assay: Inhibition of recombinant human C-terminal V5-His-tagged matriptase-2 expressed in Drosophila S2 cells using Boc-Gln-Ala-ArgAMC as substrate measured for 1200 mins by fluorescence assay
Measurement Type: pKi
// returns pKi (minus log10 of molar concentration), number only

For orientation, consider the following solved cases.
{"columns": ["Molecule", "pKi"],
 "data": [
  ["CC(C)[C@@H](NC(=O)[C@H](CCc1ccccc1)NC(=O)CCc1ccccc1)C(=O)N[C@@H](CCCNC(=N)N)C(=O)c1nc2ccccc2s1", 8.15],
  ["N=C(N)NCCC[C@H](NC(=O)[C@@H](NC(=O)C(Cc1ccc(O)cc1)NC(=O)CCc1ccccc1)C(c1ccccc1)c1ccccc1)C(=O)c1nc2ccccc2s1 (single isomer, unassigned)", 6.47]
]}

Note: attention shifts to another entry.
Response field pKi (UniProt Q8IU80) for item CC(C)C[C@H](NC(=O)[C@H](CCc1ccccc1)NC(=O)CCc1ccccc1)C(=O)N[C@@H](CCCNC(=N)N)C(=O)c1nc2ccccc2s1 : 8.28

====

target: Transmembrane protease serine 6 (Homo sapiens); assay: Inhibition of recombinant human C-terminal V5-His-tagged matriptase-2 expressed in Drosophila S2 cells using Boc-Gln-Ala-ArgAMC as substrate measured for 1200 mins by fluorescence assay
Sequence (Q8IU80 whole entry): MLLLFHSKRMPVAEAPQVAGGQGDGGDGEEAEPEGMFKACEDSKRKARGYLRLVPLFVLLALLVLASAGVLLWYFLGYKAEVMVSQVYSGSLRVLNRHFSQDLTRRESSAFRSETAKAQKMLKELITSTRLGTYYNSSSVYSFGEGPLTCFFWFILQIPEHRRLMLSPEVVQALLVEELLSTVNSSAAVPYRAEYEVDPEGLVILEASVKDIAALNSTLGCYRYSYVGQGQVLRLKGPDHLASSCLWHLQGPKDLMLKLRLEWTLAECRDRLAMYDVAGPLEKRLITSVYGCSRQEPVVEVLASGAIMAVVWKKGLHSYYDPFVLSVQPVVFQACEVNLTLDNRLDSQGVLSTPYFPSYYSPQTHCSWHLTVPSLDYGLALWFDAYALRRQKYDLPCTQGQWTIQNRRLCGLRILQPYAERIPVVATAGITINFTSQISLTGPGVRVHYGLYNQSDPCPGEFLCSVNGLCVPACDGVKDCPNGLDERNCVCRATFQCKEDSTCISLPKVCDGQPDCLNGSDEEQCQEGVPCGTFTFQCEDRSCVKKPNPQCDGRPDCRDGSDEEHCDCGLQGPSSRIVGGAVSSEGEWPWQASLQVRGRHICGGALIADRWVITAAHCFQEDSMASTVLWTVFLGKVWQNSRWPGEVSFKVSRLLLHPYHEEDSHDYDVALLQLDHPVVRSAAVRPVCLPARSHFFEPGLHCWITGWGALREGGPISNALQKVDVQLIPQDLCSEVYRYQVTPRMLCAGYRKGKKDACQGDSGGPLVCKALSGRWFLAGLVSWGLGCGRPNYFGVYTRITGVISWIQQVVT
Measurement Type: Ki (nM)
The reply should contain only the number, in nM.

Recorded results for 8 compounds are shown here.
{"columns": ["Compound", "Assay Value"],
 "data": [
  ["N=C(N)NCCC[C@H](NC(=O)[C@H](Cc1cccs1)NC(=O)C(Cc1ccc(O)cc1)NC(=O)[C@@H](N)Cc1ccc(O)cc1)C(=O)c1nc2ccccc2s1 (single isomer, unassigned)", 6],
  ["CC[C@@H](C)[C@H](NC(=O)[C@H](CCc1ccccc1)NC(=O)CCc1ccccc1)C(=O)N[C@@H](CCCNC(=N)N)C(=O)c1nc2ccccc2s1", 2.6],
  ["CC[C@H](C)[C@@H](NC(=O)[C@H](CCc1ccccc1)NC(=O)CCc1ccccc1)C(=O)N[C@@H](CCCNC(=N)N)C(=O)c1nc2ccccc2s1", 690],
  ["CC(C)[C@H](NC(=O)[C@H](Cc1ccccc1)NC(=O)[C@@H](N)Cc1ccc(O)cc1)C(=O)N[C@@H](CCCNC(=N)N)C(=O)c1nc2ccccc2s1", 9],
  ["CC[C@H](C)[C@H](NC(=O)[C@H](CCc1ccccc1)NC(=O)CCc1ccccc1)C(=O)N[C@@H](CCCNC(=N)N)C(=O)c1nc2ccccc2s1", 4],
  ["CC(C)[C@H](NC(=O)[C@H](Cc1ccc(O)cc1)NC(=O)CC12CC3CC(CC(C3)C1)C2)C(=O)N[C@@H](CCCNC(=N)N)C(=O)c1nc2ccccc2s1", 6],
  ["CC(C)(C)[C@H](NC(=O)[C@H](CCc1ccccc1)NC(=O)CCc1ccccc1)C(=O)N[C@@H](CCCNC(=N)N)C(=O)c1nc2ccccc2s1", 560],
  ["CC(C)[C@H](NC(=O)[C@H](Cc1ccc(OCc2ccccc2)cc1)NC(=O)CCc1ccccc1)C(=O)N[C@@H](CCCNC(=N)N)C(=O)c1nc2ccccc2s1", 3.5]
]}

Next item in the queue.
response.value for CC(C)[C@H](NC(=O)C(Cc1ccc(O)cc1)NC(=O)CCc1ccccc1)C(=O)N[C@@H](CCCNC(=N)N)C(=O)c1nc2ccccc2s1 (single isomer, unassigned) (field: Ki) = 1.74
